Assayed Target: SARS-CoV-2 3CLpro (Severe acute respiratory syndrome coronavirus 2, UniProt P0DTD1)
Property Measured: IC50 (nM)
Reply with just the number (in nM).

Challenge: Query IC50 on SARS-CoV-2 3CLpro (Severe acute respiratory syndrome coronavirus 2, UniProt P0DTD1) for CCCC1CCC(COC(=O)NC(CC(C)C)C(=O)NC(C=O)CC2CCNC2=O)CC1 (stereo not shown) [Compound 8b]
Response given: 200

====

Assayed Target: MERS-CoV 3CLpro (Middle East respiratory syndrome-related coronavirus, UniProt K9N7C7)
Sequence (K9N7C7 3248-3553 limits assumed): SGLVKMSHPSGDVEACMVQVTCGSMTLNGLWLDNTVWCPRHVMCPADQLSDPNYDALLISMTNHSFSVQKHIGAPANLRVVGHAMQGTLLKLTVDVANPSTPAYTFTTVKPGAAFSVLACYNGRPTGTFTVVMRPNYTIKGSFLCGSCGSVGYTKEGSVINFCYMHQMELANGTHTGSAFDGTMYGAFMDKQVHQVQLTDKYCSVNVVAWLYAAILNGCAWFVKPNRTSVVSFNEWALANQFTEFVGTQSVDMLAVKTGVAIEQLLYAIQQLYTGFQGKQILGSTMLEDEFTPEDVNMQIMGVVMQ
Property Measured: IC50 (nM)
Reply with just the number (in nM).

Challenge: Query IC50 on MERS-CoV 3CLpro (Middle East respiratory syndrome-related coronavirus, UniProt K9N7C7) for CCCC1CCC(COC(=O)NC(CC(C)C)C(=O)NC(C=O)CC2CCNC2=O)CC1 (stereo not shown)
Response given: 60

src = paper PMC8673480
